biological target: human CH24H (Homo sapiens); construct: Using Full-Length Mammalian Gene Collection No. 4819975 (Invitrogen) as a template; made in house; host or cells: FreeStyle 293-F cells, transient transfection with pcDNA3.1(+)/hCH24H; lysate supernatant, not purified; experiment: Measurement of CH24H inhibitory activity (24-HC produced from [14C] cholesterol by human CH24H lysate); type: biochemical; conditions: 1 μM test compound, [14C] cholesterol 15 μM, 37° C. for 5 hr, read-out: Inhibitory Rate in 1 μM (%)
Sequence (Q9Y6A2 whole entry): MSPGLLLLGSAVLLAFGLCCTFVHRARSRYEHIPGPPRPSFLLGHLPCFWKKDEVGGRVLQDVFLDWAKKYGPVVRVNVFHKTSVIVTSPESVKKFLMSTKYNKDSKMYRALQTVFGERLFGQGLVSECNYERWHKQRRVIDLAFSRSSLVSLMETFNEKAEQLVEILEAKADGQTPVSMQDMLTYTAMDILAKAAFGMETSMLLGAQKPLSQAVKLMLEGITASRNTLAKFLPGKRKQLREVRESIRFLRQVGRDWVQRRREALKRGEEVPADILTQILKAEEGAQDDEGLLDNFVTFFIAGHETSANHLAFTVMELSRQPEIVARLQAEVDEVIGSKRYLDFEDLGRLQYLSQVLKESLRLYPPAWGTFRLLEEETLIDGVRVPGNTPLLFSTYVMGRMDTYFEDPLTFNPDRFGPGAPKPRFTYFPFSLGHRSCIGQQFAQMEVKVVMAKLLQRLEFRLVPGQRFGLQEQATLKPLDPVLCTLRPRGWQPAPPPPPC
Catalogue of inhibition at 1 µM readings, one per entry.

Molecule | inhibition at 1 µM
CO[C@H]1C[C@H](C#N)N(C(=O)C2CCN(c3cnccc3-n3cc(C)cn3)CC2)C1 [Example 144] | 98%
O=C(C1CCN(c2cncnc2-c2ccc(F)cc2)CC1)N1CC(F)C1 [Example 278] | 75%
Cc1cnn(-c2ccncc2N2CCC3(CCN(C)C3=O)CC2)c1 [Example 82] | 97%
Cc1nnc(-c2ccncc2N2CCC(F)(C(=O)N3CCC[C@@H]3C#N)CC2)s1 [Example 131] | 87%
O=C(OCc1ccccc1)N1CCN(c2cncnc2-c2ccccc2)CC1 [Example 169] | 97%
O=C(NCc1ccccc1)N1CCN(c2cncnc2-c2ccccc2)CC1 [Example 175] | 95%
O=C(NC1CCOCC1)C1CCN(c2cnccc2-n2cc(Cl)cn2)CC1 [Example 24] | 96%
Cc1cnn(-c2ccncc2N2CCC(C(=O)N(CCF)[C@H]3CCOC3)CC2)c1 [Example 312] | 71%
Cc1cnc(-c2ccncc2N2CCC(C(=O)N3CCC[C@@H]3C#N)CC2)s1 [Example 129] | 82%
